target: mUSP18 (Mus musculus); construct: (46-368); His-tag (N); made in house; assay: High-throughput screening, ISG15ct-RhoMP, single dose 1.25 µM; type: biochemical, murine; settings: mUSP18 %inhibition; carboxylic acid (CA) with coupling reagents DIC/HOBT; read-out: %inh CA + DIC/HOBT
Sequence (Q9WTV6 46-368): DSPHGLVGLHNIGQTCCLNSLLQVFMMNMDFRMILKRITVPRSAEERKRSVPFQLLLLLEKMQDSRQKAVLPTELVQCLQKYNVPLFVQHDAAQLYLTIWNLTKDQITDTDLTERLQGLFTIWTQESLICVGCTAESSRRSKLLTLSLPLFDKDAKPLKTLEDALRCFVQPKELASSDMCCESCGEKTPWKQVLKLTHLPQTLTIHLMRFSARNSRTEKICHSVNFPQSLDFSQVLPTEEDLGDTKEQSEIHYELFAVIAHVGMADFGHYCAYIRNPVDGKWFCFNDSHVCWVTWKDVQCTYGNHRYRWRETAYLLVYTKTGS
measured-metric: inhibition at 1.25 µM (%)
Give bare numbers, in %.

Some compounds with known inhibition at 1.25 µM results, for comparison:
CN(Cc1cccnc1)S(=O)(=O)c1cc(C(=O)O)n(C)c1 ... 4.09
CCCN(CCC)S(=O)(=O)c1ccc(C(=O)O)cc1 ... -9.25
O=C(O)C1CCN(C(=O)c2ccc(Cl)s2)CC1 ... 4.42
O=C(O)C(c1ccccc1)n1cnnn1 (stereo not drawn) ... -0.48
O=C(O)c1cc(C2CCC2)on1 ... -2.8

Hey, can you go through the list below and give me inhibition at 1.25 µM for every item?
1. CSCCC(NC(C)=O)C(=O)O (stereo not drawn)
2. O=C(O)c1ccc(-n2cccn2)cc1
3. Cc1cccc(COc2cccc(C(=O)O)c2)c1
4. O=C(O)CC1C(=O)Nc2ccccc21 (stereo not drawn)

1. -9.16
2. -3.85
3. 2.72
4. -14.2

Please go through the list and note inhibition at 1.25 µM for each compound.
1. O=C(O)[1C@@H]1CCO[1C@H]1c1ccccc1
2. Cc1csc(N2CCCC(C(=O)O)C2)n1 (stereo not drawn)
3. O=C(O)c1sc(N2CCCC2)nc1Cl

[8.31, 3.37, -3.06]
